I'd be grateful if you could share measured inhibition at 0.1 µM for these entries.
- TARGET_OR_SYSTEM: Renin (Homo sapiens)
- ASSAY_PROTOCOL: In-vitro renin inhibition assay (modified Cayman renin inhibitor screening assay, fluorescence)
- Assay type: biochemical
- Design: purchased Cayman 10006270
- CONDITION: compound concentration 0.1 μM; 37° C., 30 mins; read-out: Renin inhibition (percent inhibition of renin activity) at 0.1 μM
Counter-ions that a name gives are not always drawn.

Looking up Cc1cc(Cl)c(OCCOc2ccc(CC(CN)C(=O)N3CCCc4cc(C(F)(F)F)ccc43)cn2)c(Cl)c1 (stereo not shown) , I found its inhibition at 0.1 µM recorded as 80.1%

Looking up NCC(Cc1ccc(OCCOc2ccc(Cl)cc2F)cc1)C(=O)N1CCCc2cc(C(F)(F)F)ccc21 (stereo not shown) [Example 40, hydrochloride] , I found its inhibition at 0.1 µM recorded as 38.9%

Looking up NCC(Cc1ccc(OCCOc2c(Cl)cccc2Cl)cc1)C(=O)N1CCCc2cc(OC(F)(F)F)ccc21 (stereo not shown) [Example 32, hydrochloride] , I found its inhibition at 0.1 µM recorded as 100%

Looking up NCC(Cc1ccc(OCCOc2c(F)cccc2F)cc1)C(=O)N1CCCc2cc(F)ccc21 (stereo not shown) [Example 35, hydrochloride] , I found its inhibition at 0.1 µM recorded as 26.3%

====

- TARGET_OR_SYSTEM: Renin (Homo sapiens)
- ASSAY_PROTOCOL: In-vitro renin inhibition assay (modified Cayman renin inhibitor screening assay, fluorescence)
- Format: biochemical
- Set-up: purchased Cayman 10006270
- CONDITION: compound concentration 1 μM; 37° C., 30 mins; read-out: Renin inhibition (percent inhibition of renin activity) at 1 μM
Where a name gives a salt, the structure may show the parent alone.
I'd be grateful if you could share measured inhibition at 1 µM for these entries.
Hi! Could you send only the number? It should be in %, unit omitted.

Looking up Cc1cc(Cl)c(OCCOc2ccc(CC(CN)C(=O)N3CCOc4ccccc43)cc2)c(Cl)c1 (centres unmarked) , I found its inhibition at 1 µM recorded as 73.5

Looking up Cc1cc(Cl)c(OCCOc2ccc(CC(CN)C(=O)N3CCCc4cc(F)ccc43)cn2)c(Cl)c1 (centres unmarked) [Example 44, hydrochloride] , I found its inhibition at 1 µM recorded as 96.3

Looking up COCC1CCCN(C(=O)C(CN)Cc2ccc(OCCOc3c(Cl)cc(C)cc3Cl)cc2)C1 (centres unmarked) [Example 26, hydrochloride] , I found its inhibition at 1 µM recorded as 93.9

Looking up Cc1cc(Cl)c(OCCOc2ccc(CC(CN)C(=O)N3CCCc4cccc(F)c43)cc2)c(Cl)c1 (centres unmarked) , I found its inhibition at 1 µM recorded as 68.5

Looking up Cc1cc(Cl)c(OCCOc2ccc(CC(CN)C(=O)N3CCCc4cc(F)ccc43)cc2)c(Cl)c1 (centres unmarked) , I found its inhibition at 1 µM recorded as 96.1

====

I'd be grateful if you could share measured log10(IC50) for these entries.
- TARGET_OR_SYSTEM: UniProt:P00797
- ASSAY_PROTOCOL: Renin inhibition in human plasma (IC50)
Counter-ions that a name gives are not always drawn.
Parameter value (number): base-10 log of IC50 in nM.

Field log10(IC50) (system: UniProt:P00797) for entry Cc1cc(Cl)c(OCCOc2ccc(CC(CN)C(=O)N3CCCc4cc(OC(F)(F)F)ccc43)cc2)c(Cl)c1 (stereo not shown) [Example 27, hydrochloride] = -0.04

Field log10(IC50) (system: UniProt:P00797) for entry Cc1cc(Cl)c(OCCOc2ccc(CC(CN)C(=O)N3CCCc4cc(C(F)(F)F)ccc43)cc2)c(Cl)c1.Cl (stereo not shown) [Example 15A, hydrochloride] = 0.89

Field log10(IC50) (system: UniProt:P00797) for entry COCC1CCCN(C(=O)C(CN)Cc2ccc(OCCOc3c(Cl)cc(C)cc3Cl)cc2)C1 (stereo not shown) [Example 26, hydrochloride] = 1.44

Field log10(IC50) (system: UniProt:P00797) for entry COCCCOc1ccc2c(c1)CCCN2C(=O)C(CN)Cc1ccc(OCCOc2c(Cl)cc(C)cc2Cl)cc1 (stereo not shown) = 1.40

Field log10(IC50) (system: UniProt:P00797) for entry NCC(Cc1ccc(OCCOc2c(Cl)cccc2Cl)cc1)C(=O)N1CCCc2cc(OC(F)(F)F)ccc21 (stereo not shown) [Example 32, hydrochloride] = -0.08

Field log10(IC50) (system: UniProt:P00797) for entry NCC(Cc1ccc(OCCOc2c(Cl)cccc2Cl)cc1)C(=O)N1CCCc2cc(C(F)(F)F)ccc21 (stereo not shown) [Example 31, hydrochloride] = 1.46

Field log10(IC50) (system: UniProt:P00797) for entry Cc1cc(Cl)c(OCCOc2ccc(CC(CN)C(=O)N3CCCCC3)cc2)c(Cl)c1 (stereo not shown) = 1.85

====

- TARGET_OR_SYSTEM: Renin (Homo sapiens)
- Sequence (P00797 67-406): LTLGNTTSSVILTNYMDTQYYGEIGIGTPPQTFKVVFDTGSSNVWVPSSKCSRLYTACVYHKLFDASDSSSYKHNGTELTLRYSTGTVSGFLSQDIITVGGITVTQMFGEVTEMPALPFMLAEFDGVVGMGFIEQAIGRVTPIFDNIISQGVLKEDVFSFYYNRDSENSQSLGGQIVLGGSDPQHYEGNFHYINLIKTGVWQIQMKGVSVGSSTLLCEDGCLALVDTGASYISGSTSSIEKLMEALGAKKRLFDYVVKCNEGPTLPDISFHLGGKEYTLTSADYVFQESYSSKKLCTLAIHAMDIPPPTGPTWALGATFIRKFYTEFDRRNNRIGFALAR
- ASSAY_PROTOCOL: In-vitro renin inhibition assay (modified Cayman renin inhibitor screening assay, fluorescence)
- Type: biochemical
- Design: purchased Cayman 10006270
- CONDITION: compound concentration 0.1 μM; 37° C., 30 mins; read-out: Renin inhibition (percent inhibition of renin activity) at 0.1 μM
Structures can show the parent of a compound that is named as a salt.
Decide by inhibition at 0.1 µM: equal to or exceeding 90% means condition met, less means condition not met.

QUERY: Does the reported inhibition at 0.1 µM for CC(C)(C)c1ccc2c(c1)CCCN2C(=O)C(CN)Cc1ccc(OCCOc2c(Cl)cccc2Cl)cc1 (stereo not drawn) [Example 53, hydrochloride] fall at or above the 90% mark?
RESULT: condition met

QUERY: Does the reported inhibition at 0.1 µM for NCC(Cc1ccc(OCCOc2ccc(Cl)cc2Cl)cc1)C(=O)N1CCCc2cc(C(F)(F)F)ccc21 (stereo not drawn) fall at or above the 90% mark?
RESULT: condition not met

QUERY: Does the reported inhibition at 0.1 µM for Cc1cc(Cl)c(OCCOc2ccc(CC(CN)C(=O)N3CCCc4cc(C)ccc43)cc2)c(Cl)c1 (stereo not drawn) fall at or above the 90% mark?
RESULT: condition not met

QUERY: Does the reported inhibition at 0.1 µM for Cc1cc(Cl)c(OCCOc2ccc(CC(CN)C(=O)N3CCCc4cc(OCC(F)(F)F)ccc43)cc2)c(Cl)c1 (stereo not drawn) [Example 28, hydrochloride] fall at or above the 90% mark?
RESULT: condition not met

QUERY: Does the reported inhibition at 0.1 µM for Cc1cc(Cl)c(OCCOc2ccc(CC(CN)C(=O)N3CCCCC3)cc2)c(Cl)c1 (stereo not drawn) fall at or above the 90% mark?
RESULT: condition not met

QUERY: Does the reported inhibition at 0.1 µM for Cc1cc(Cl)c(OCCCOc2ccc(CC(CN)C(=O)N3CCCc4ccccc43)cc2)c(Cl)c1 (stereo not drawn) fall at or above the 90% mark?
RESULT: condition not met

QUERY: Does the reported inhibition at 0.1 µM for Cc1cc(Cl)c(OCCOc2ccc(CC(CN)C(=O)N3CCCc4cc(C(F)(F)F)ccc43)cc2)c(Cl)c1 (stereo not drawn) fall at or above the 90% mark?
RESULT: condition met

QUERY: Does the reported inhibition at 0.1 µM for COC1CCCN(C(=O)C(CN)Cc2ccc(OCCOc3c(Cl)cc(C)cc3Cl)cc2)C1 (stereo not drawn) [Example 30, hydrochloride] fall at or above the 90% mark?
RESULT: condition met

QUERY: Does the reported inhibition at 0.1 µM for NCC(Cc1ccc(OCCOc2ccc(Cl)cc2Cl)cc1)C(=O)N1CCCc2cc(F)ccc21 (stereo not drawn) [Example 37, hydrochloride] fall at or above the 90% mark?
RESULT: condition not met

QUERY: Does the reported inhibition at 0.1 µM for NCC(Cc1ccc(OCCOc2c(Cl)cccc2Cl)cc1)C(=O)N1CCCc2cc(C(F)(F)F)ccc21 (stereo not drawn) [Example 31, hydrochloride] fall at or above the 90% mark?
RESULT: condition met

QUERY: Does the reported inhibition at 0.1 µM for Cc1cc(Cl)c(OCCOc2ccc(CC(CN)C(=O)N3CCCc4cc(Cl)cc(Cl)c43)cc2)c(Cl)c1 (stereo not drawn) fall at or above the 90% mark?
RESULT: condition not met

QUERY: Does the reported inhibition at 0.1 µM for NCC(Cc1ccc(OCCOc2c(F)cccc2F)cc1)C(=O)N1CCCc2cc(C(F)(F)F)ccc21 (stereo not drawn) [Example 34, hydrochloride] fall at or above the 90% mark?
RESULT: condition not met
